- STUDY TARGET: Phospholipase A2 group V (Mus musculus, UniProt P97391)
- Sequence (P97391 whole entry): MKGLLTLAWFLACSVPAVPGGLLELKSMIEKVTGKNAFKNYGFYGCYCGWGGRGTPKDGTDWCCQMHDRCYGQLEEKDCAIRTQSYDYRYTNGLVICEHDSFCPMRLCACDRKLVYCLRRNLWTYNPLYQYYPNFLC
RECORDED ENDPOINT: IC50 (nM)
Give your result in nM as a bare value.

// query Consider the compound shown here: "CCCCCCCCCCCCCCC(=O)C(=O)N[C@@H](CC(C)C)C(=O)O" What is its recorded IC50?
// result 2600

* * *

- STUDY TARGET: Group 10 secretory phospholipase A2 (Homo sapiens)
- ASSAY DETAILS: Inhibition of human group 10 sPLA2 at […] by fluorescence assay
Where inhibition equals or exceeds 20%, the correct label is MET; where it does not, the label is NOT MET.

Would you please look over these solved cases?
| STRUCTURE AS SMILES | CATEGORY |
| --- | --- |
| CCCCCCCCCCCCCCC(=O)C(=O)NCCCCC(=O)O | NOT MET |
| CCCCCCCCCCCCCCC(=O)C(=O)NCCC(=O)O | NOT MET |
| CCCCCCCCCCCCCCC(=O)C(=O)NCC(=O)O | MET |
| CCCCCCCCCCCCCCC(=O)C(=O)N[C@@H](CC(C)C)C(=O)O | MET |

Please turn your attention to the following entry.
// query Hello, I need to know if "CCCCCCCCCCCCCCC(=O)C(=O)NCC(=O)OC" has measured inhibition not below 20%. Thanks!
// result MET

* * *

- STUDY TARGET: Group 10 secretory phospholipase A2 (Homo sapiens)
- Sequence (O15496 whole entry): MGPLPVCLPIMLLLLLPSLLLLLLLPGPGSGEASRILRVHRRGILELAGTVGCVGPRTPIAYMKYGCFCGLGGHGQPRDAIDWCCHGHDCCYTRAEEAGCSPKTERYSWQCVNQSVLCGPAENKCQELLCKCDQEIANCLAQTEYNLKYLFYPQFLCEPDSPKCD
- ASSAY DETAILS: Inhibition of human group 10 sPLA2 by fluorescence assay
pIC50: −log10 of the molar value.
Below: a set of entries, each annotated with reported pIC50.

| STRUCTURE AS SMILES | pIC50 |
| --- | --- |
| CCCCCCCCCCCCCCC(=O)C(=O)N[C@H](CC(C)C)C(=O)O | < 5.78 |

// query Consider the molecule shown here: "CCCCCCCCCCCCCCC(=O)C(=O)N[C@@H](Cc1ccccc1)C(=O)O" What is its recorded pIC50?
// result < 5.78

* * *

Below: a set of entries, each annotated with reported IC50.
- STUDY TARGET: Phospholipase A2 group V (Homo sapiens, UniProt P39877)

Sample records with IC50:
| STRUCTURE AS SMILES | ENDPOINT RESULT |
| --- | --- |
| CCCCCCCCCCCCCCCC(=O)N[C@@H](CC(C)C)C(=O)O | > 1660 nM |
| CCCCCCCCCCCCCCC(=O)C(=O)N[C@@H](Cc1ccccc1)C(=O)O | > 1660 nM |

Please examine the following record next.
// query Consider the compound shown here: "CCCCCCCCCCCCCCC(=O)C(=O)N[C@H](CC(C)C)C(=O)O" What is its recorded IC50?
// result 1500 nM

* * *

- STUDY TARGET: Phospholipase A2 group V (Homo sapiens)
- Sequence (whole entry): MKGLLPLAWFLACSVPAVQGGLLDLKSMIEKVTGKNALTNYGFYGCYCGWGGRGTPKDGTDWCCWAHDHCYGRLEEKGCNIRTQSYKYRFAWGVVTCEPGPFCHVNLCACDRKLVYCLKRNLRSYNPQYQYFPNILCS
- ASSAY DETAILS: Inhibition of human group 5 sPLA2 at […] by fluorescence assay
RECORDED ENDPOINT: inhibition
Provide a numeric answer, followed by its unit.

Sample records with inhibition:
| STRUCTURE AS SMILES | inhibition |
| --- | --- |
| CCCCCCCCCCCCCCC(=O)C(=O)NCC(=O)O | 43% |
| CCCCCCCCCCCCCCC(=O)C(=O)NCC(=O)OC | 9% |
| CCCCCCCCCCCCCCC(=O)C(=O)NCCC(=O)O | 47% |

Please examine the following record next.
// query Value wanted: inhibition (Phospholipase A2 group V (Homo sapiens)) of entry "CCCCCCCCCCCCCCC(=O)C(=O)NCCCCC(=O)O"
// result 49%

Data origin, for the record: ChEMBL document CHEMBL1641515
